experimentNotes: Initial plasma concentration in Sprague-Dawley rat at 1 mg/kg, iv by LC-MS/MS analysis
Assay type: ADME, organism-based
Recorded C0 by entry
Form entry: value (ng/mL) — number only.

itemSmiles: O=C(Nc1cc(Cl)nc(Cl)c1)Nc1cc(Cl)nc(Cl)c1
C0 [ng/mL]: 1110

Consider now this further compound.
For Cc1nn(C)c2nc(NNC(=O)Nc3cc(Cl)nc(Cl)c3)cc(C(C)C)c12 , what is its reported C0?
2020

====

System: NCM460
experimentNotes: Cytotoxicity against human NCM460 cells assessed as cell viability measured after 72 hrs in presence of 5-FU by MTT assay
Assay type: cell-based
assayConditions: NCM460, 72 h
Classification by EC50 follows these ranges: low range (below 30 µM), mid range (30 µM to below 60 µM), high range (60 µM or more)

Examples with answers:
itemSmiles: Cc1cc(NC(=O)Nc2cc(Cl)nc(Cl)c2)n(C)n1
target: NCM460
assignedClass: high range
--
itemSmiles: O=c1[nH]cc(F)c(=O)[nH]1
target: NCM460
assignedClass: mid range
--
itemSmiles: O=C(Nc1cc(Cl)nc(Cl)c1)Nc1cc2ccc(-c3ccccc3)cn2n1
target: NCM460
assignedClass: low range
--
itemSmiles: O=C(NNc1nc(Nc2ccccc2)nc(N2CCCC2)n1)Nc1cc(Cl)nc(Cl)c1
target: NCM460
assignedClass: high range
--
itemSmiles: O=C(Nc1cc(Cl)nc(Cl)c1)Nc1cc2ccc(Br)cn2n1
target: NCM460
assignedClass: low range

Which category fits this record: COc1cc(NC(=O)Nc2cc(Cl)nc(Cl)c2)cc(Cl)n1
mid range

Which category fits this record: O=C(Nc1ccnc(Cl)c1)Nc1cc(Cl)nc(Cl)c1
mid range

====

Recorded half-life by entry
experimentNotes: Half life in Sprague-Dawley rat blood at 1 mg/kg, iv measured for 24 hrs by LC-MS/MS analysis
Format: ADME, organism-based
Form entry: value (h) — number only.

itemSmiles: O=C(Nc1cc(Cl)nc(Cl)c1)Nc1cc(Cl)nc(Cl)c1
unitsOfMeasure: h
half-life: 4.4

Consider now this further compound.
For Cc1nn(C)c2nc(NNC(=O)Nc3cc(Cl)nc(Cl)c3)cc(C(C)C)c12 , what is its reported half-life?
1

====

experimentNotes: AUC (0 to infinity) in Sprague-Dawley rat blood at 1 mg/kg, iv by LC-MS/MS analysis
Type: ADME, organism-based
Set-up: route intravenous, time infinity, dose 1 mg/kg
Recorded AUC(0-inf) by entry

itemSmiles: O=C(Nc1cc(Cl)nc(Cl)c1)Nc1cc(Cl)nc(Cl)c1
endpointValue: 1950 ng·h/mL

Consider now this further molecule.
For Cc1nn(C)c2nc(NNC(=O)Nc3cc(Cl)nc(Cl)c3)cc(C(C)C)c12 , what is its reported AUC(0-inf)?
738 ng·h/mL

====

experimentNotes: Stability in mouse liver microsomes assessed as parent compound remaining at 2 umol/L measured after 60 mins in presence of NADPH regenerating system by LC-MS/MS analysis
Assay type: ADME, Microsome
assayConditions: dose 2 µmol/L, read-out: Stabilty
reportedProperty: remaining at 1 h, 2 µM (%)
Form entry: value (%) — number only.

For O=C(Nc1cc(Cl)nc(Cl)c1)Nc1cc(Cl)nc(Cl)c1 , what is its reported remaining at 1 h, 2 µM?
97.9

====

target: UniProtKB O95136
experimentNotes: Binding affinity to S1PR2 (unknown origin) assessed as dissociation constant measured for 60 secs by surface plasmon resonance assay
reportedProperty: Dissociation rate constant (koff)

itemSmiles: CN1CCN(C(=O)Nc2cc(Cl)nc(Cl)c2)CC1
target: UniProtKB O95136
Dissociation rate constant (koff): 1.06 10^-1/s
--
itemSmiles: O=C(NNc1nc(Nc2ccccc2)nc(N2CCCC2)n1)Nc1cc(Cl)nc(Cl)c1
target: UniProtKB O95136
Dissociation rate constant (koff): 1.33 10^-1/s
--
itemSmiles: O=C(Nc1cc(Cl)cc(Cl)c1)Nc1cc(Cl)nc(Cl)c1
target: UniProtKB O95136
Dissociation rate constant (koff): 1.16 10^-1/s
--
itemSmiles: O=C(Nc1cc(Cl)nc(Cl)c1)Nc1cc2ccc(Br)cn2n1
target: UniProtKB O95136
Dissociation rate constant (koff): 0.168 s⁻¹

Lab note: need Dissociation rate constant (koff) for Cn1ccc2c(-c3ccccc3)nc(NNC(=O)Nc3cc(Cl)nc(Cl)c3)nc21 on UniProtKB O95136, anyone have it?
1.36 10^-1/s

Lab note: need Dissociation rate constant (koff) for O=C(Nc1cc(Cl)nc(Cl)c1)Nc1cc(Cl)nc(Cl)c1 on UniProtKB O95136, anyone have it?
6.97 10^-1/s

====

target: Sphingosine 1-phosphate receptor 2 (Homo sapiens)
Sequence (O95136 whole entry): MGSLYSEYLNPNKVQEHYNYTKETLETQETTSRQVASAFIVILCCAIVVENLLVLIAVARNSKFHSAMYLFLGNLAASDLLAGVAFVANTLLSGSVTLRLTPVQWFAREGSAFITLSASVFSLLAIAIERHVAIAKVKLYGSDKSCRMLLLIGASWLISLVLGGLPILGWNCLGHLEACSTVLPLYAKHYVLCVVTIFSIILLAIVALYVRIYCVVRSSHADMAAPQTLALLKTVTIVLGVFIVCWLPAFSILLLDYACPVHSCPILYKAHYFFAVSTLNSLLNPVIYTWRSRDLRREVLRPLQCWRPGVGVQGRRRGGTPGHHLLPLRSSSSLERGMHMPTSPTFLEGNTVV
experimentNotes: Binding affinity to S1PR2 (unknown origin) assessed as dissociation constant measured for 60 secs by surface plasmon resonance assay
reportedProperty: Dissociation rate constant (koff)

Below, 2 compounds whose answers are already recorded.
itemSmiles: COc1c(Cl)cc(NC(=O)Nc2cc(Cl)nc(Cl)c2)cc1Cl
reportedProperty: Dissociation rate constant (koff)
endpointValue: 3.12 10^-1/s
--
itemSmiles: O=C(Nc1cc(Cl)nc(Cl)c1)Nc1cc2ccccn2n1
reportedProperty: Dissociation rate constant (koff)
endpointValue: 1.16 10^-1/s

For CC(C)Oc1cc(NC(=O)Nc2cc(Cl)nc(Cl)c2)cc(Cl)n1 , what is its reported Dissociation rate constant (koff)?
1.19 10^-1/s

For COc1cc(NC(=O)Nc2cc(Cl)nc(Cl)c2)cc(Cl)n1 , what is its reported Dissociation rate constant (koff)?
2.19 10^-1/s

For O=C(Nc1cc(Cl)nc(Cl)c1)Nc1cc(Cl)nc(OC2CCCC2)c1 , what is its reported Dissociation rate constant (koff)?
1.79 10^-1/s

For O=C(NNc1nc(N2CCOCC2)c2ccn(C3CC3)c2n1)Nc1cc(Cl)nc(Cl)c1 , what is its reported Dissociation rate constant (koff)?
1.33 10^-1/s

For CCOc1cc(NC(=O)Nc2cc(Cl)nc(Cl)c2)cc(Cl)n1 , what is its reported Dissociation rate constant (koff)?
1.02 10^-1/s

For O=C(Nc1ccnc(Cl)c1)Nc1cc(Cl)nc(Cl)c1 , what is its reported Dissociation rate constant (koff)?
2.01 10^-1/s

For Cc1nn(C)c2nc(NNC(=O)Nc3cc(Cl)nc(Cl)c3)cc(C(C)C)c12 , what is its reported Dissociation rate constant (koff)?
1.61 10^-1/s

For Cc1cc(NC(=O)Nc2cc(Cl)nc(Cl)c2)cc(C)n1 , what is its reported Dissociation rate constant (koff)?
1.46 10^-1/s

For O=C(Nc1cc(Cl)nc(Cl)c1)Nc1cc2ccc(-c3ccccc3)cn2n1 , what is its reported Dissociation rate constant (koff)?
2.01 10^-1/s

====

experimentNotes: Clearance in Sprague-Dawley rat plasma at 1 mg/kg, iv measured for 24 hrs by LC-MS/MS analysis
Assay type: ADME, organism-based
Recorded clearance by entry
Form entry: value (mL/min/kg) — number only.

itemSmiles: Cc1nn(C)c2nc(NNC(=O)Nc3cc(Cl)nc(Cl)c3)cc(C(C)C)c12
unitsOfMeasure: mL/min/kg
clearance: 35

Consider now this further compound.
For O=C(Nc1cc(Cl)nc(Cl)c1)Nc1cc(Cl)nc(Cl)c1 , what is its reported clearance?
4.17

====

Recorded pEC50 by entry
System: HCT-116
experimentNotes: Reversal of 5-FU resistance against human HCT-116 cells overexpressing DPD assessed as inhibition of cell proliferation measured after 72 hrs in presence of 5-FU by MTT assay
Type: functional, cell-based
assayConditions: HCT-116, 72 h
For clarity, pEC50 is expressed as the negative log10 of concentration in mol/L.

itemSmiles: CNc1cc(C)nc(NNC(=O)Nc2cc(Cl)nc(Cl)c2)n1
endpointValue: 4.63

itemSmiles: COc1cc(NC(=O)Nc2cc(Cl)nc(Cl)c2)cc(Cl)n1
endpointValue: 4.95

itemSmiles: O=C(Nc1cc(Cl)nc(Cl)c1)Nc1cc2ccc(-c3ccccc3)cn2n1
endpointValue: 5.29

itemSmiles: O=C(Nc1ccnc(Cl)c1)Nc1cc(Cl)nc(Cl)c1
endpointValue: 4.79

itemSmiles: O=C(Nc1cc(Cl)nc(Cl)c1)Nc1cc2ccc(Br)cn2n1
endpointValue: 5.28

Consider now this further compound.
For CC(C)Oc1cc(NC(=O)Nc2cc(Cl)nc(Cl)c2)cc(Cl)n1 , what is its reported pEC50?
5.28

====

experimentNotes: Drug concentration in Sprague-Dawley rat blood at 1 mg/kg, iv measured after 8 hrs by LC-MS/MS analysis
Type: ADME, organism-based
assayConditions: read-out: Ct
reportedProperty: concentration at 8 h

For Cc1nn(C)c2nc(NNC(=O)Nc3cc(Cl)nc(Cl)c3)cc(C(C)C)c12 , what is its reported concentration at 8 h?
< 1 ng/mL

====

experimentNotes: Reversal of 5-FU resistance against human SW620/5-FU cells assessed as inhibition of cell proliferation measured after 72 hrs in presence of 5-FU by MTT assay
Assay type: functional, cell-based
reportedProperty: pEC50
For clarity, pEC50 is expressed as the negative log10 of concentration in mol/L.

For O=C(Nc1cc(Cl)nc(Cl)c1)Nc1cc2ccc(Br)cn2n1 , what is its reported pEC50?
4.93

For O=C(Nc1cc(Cl)nc(Cl)c1)Nc1cc2ccc(-c3ccccc3)cn2n1 , what is its reported pEC50?
5.03

For Cn1ccc2c(-c3ccccc3)nc(NNC(=O)Nc3cc(Cl)nc(Cl)c3)nc21 , what is its reported pEC50?
3.28

For O=C(Nc1cc(Cl)nc(Cl)c1)Nc1cc(Cl)nc(OC2CCCC2)c1 , what is its reported pEC50?
5.21

For O=C(Nc1cc(Cl)nc(Cl)c1)Nc1cc2ccccn2n1 , what is its reported pEC50?
5.60

For O=C(Nc1cc(Cl)cc(Cl)c1)Nc1cc(Cl)nc(Cl)c1 , what is its reported pEC50?
4.91

For CCOc1cc(NC(=O)Nc2cc(Cl)nc(Cl)c2)cc(Cl)n1 , what is its reported pEC50?
5.09

For COc1ccc(-c2ccc3cc(NC(=O)Nc4cc(Cl)nc(Cl)c4)nn3c2)cc1 , what is its reported pEC50?
5.02

For CN(C)c1nc(NNC(=O)Nc2cc(Cl)nc(Cl)c2)nc2c1ccn2C , what is its reported pEC50?
4.32

For CC(C)Oc1cc(NC(=O)Nc2cc(Cl)nc(Cl)c2)cc(Cl)n1 , what is its reported pEC50?
5.29

For O=C(NNc1nc(Nc2ccccc2)nc(N2CCCC2)n1)Nc1cc(Cl)nc(Cl)c1 , what is its reported pEC50?
4.50
